Value source: ChEMBL document CHEMBL4190233

- Tested on: Influenza A virus
- assay_protocol: Antiviral activity against Influenza A virus A/PR/8/34 (H1N1) infected in MDCK cells measured after 48 hrs post infection by plaque reduction assay
- Assay type: functional, organism-based
- conditions_used: A/Puerto Rico/8/1934(H1N1)
For each entry below, report its EC50 value.
Dear colleague, please return just the value in µM, with no unit written.

query: What does the record list as EC50 for NC(=O)c1ncn([C@@H]2O[C@H](CO)[C@@H](O)[C@H]2O)n1 [RIBAVIRIN] ?
result: 10

query: Continue with CN1CCN(C(=O)c2c(NC(=O)c3ccccc3O)sc3c2CCCCC3)CC1
result: 94

query: Continue with Nc1ccc(C(=O)Nc2sc3c(c2C(=O)Nc2ccccn2)CCCCC3)cc1
result: 0.26

query: Continue with O=C(Nc1sc2c(c1C(=O)Nc1ccccn1)CCCCC2)c1ccc(O)cc1
result: 19

query: Continue with COc1ccccc1NC(=O)c1c(NC(=O)c2ccc(Cl)cc2)sc2c1CCCCC2
result: 24

====

- measured_on: PA/PB1 (Influenza A virus (A/Puerto Rico/8/1934(H1N1)), UniProt P03431+P03433)
- assay_protocol: Inhibition of Influenza A virus 6His-tagged PA (239 to 716 residues)/GST-tagged PB1 (1 to 25 residues) protein-protein interaction expressed in Escherichia coli measured after overnight incubation by ELISA
endpoint_label: pIC50
Interpret pIC50 as the negative base-10 log of the concentration measured in mol/L.

query: What does the record list as pIC50 for O=C(Nc1sc2c(c1C(=O)Nc1ccccn1)CCCCC2)c1ccccc1O ?
result: 4.82

query: Continue with O=C(Nc1sc2c(c1C(=O)NC1CCCCC1)CCCCC2)c1ccccc1O
result: 3.94

query: Continue with O=C(Nc1sc2c(c1C(=O)N1CCN(c3ccccn3)CC1)CCCCC2)c1ccccc1O
result: 3.71

====

- System: Influenza A virus
- assay_protocol: Antiviral activity against Influenza A virus A/PR/8/34 (H1N1) infected in MDCK cells measured after 48 hrs post infection by plaque reduction assay
- Assay type: functional, organism-based
- conditions_used: A/Puerto Rico/8/1934(H1N1)
endpoint_label: EC50 (µM)
Dear colleague, please return just the value in µM, with no unit written.

query: What does the record list as EC50 for O=C(Nc1sc2c(c1C(=O)Nc1ccccn1)CCCCC2)c1ccccc1O ?
result: 2.6

query: Continue with COc1ccccc1C(=O)Nc1sc2c(c1C(=O)Nc1ccccn1)CCCCC2
result: 86

query: Continue with O=C(Nc1sc2c(c1C(=O)Nc1ccc(F)cc1)CCCCC2)c1ccccc1O
result: 1.2

query: Continue with O=C(Nc1sc2c(c1C(=O)Nc1ccccn1)CCCCC2)c1cccc(O)c1
result: 22

query: Continue with CSCC[C@H](N)C(=O)N[C@@H](CC(=O)O)C(=O)N[C@H](C(=O)N[C@@H](CC(N)=O)C(=O)N1CCC[C@H]1C(=O)N[C@H](C(=O)N[C@@H](CC(C)C)C(=O)N[C@@H](CC(C)C)C(=O)N[C@@H](Cc1ccccc1)C(=O)N[C@@H](CC(C)C)C(=O)N[C@@H](CCCCN)C(=O)N[C@H](C(=O)N1CCC[C@H]1C(=O)N[C@@H](C)C(=O)N[C@@H](CCC(N)=O)C(=O)O)C(C)C)[C@@H](C)O)C(C)C
result: 41

query: Continue with O=C(Nc1sc2c(c1C(=O)Nc1ccc(Cl)cc1)CCCCC2)c1ccccc1O
result: 1.2

query: Continue with O=C(Nc1sc2c(c1C(=O)Nc1ccccc1O)CCCCC2)c1ccccn1
result: 8.2

query: Continue with COc1ccccc1C(=O)Nc1sc2c(c1C(=O)Nc1ccc(Cl)cc1)CCCCC2
result: 82

query: Continue with O=C(Nc1sc2c(c1C(=O)Nc1ccccc1O)CCCCC2)c1ccc(Cl)cc1
result: 1.8

query: Continue with O=C(Nc1sc2c(c1C(=O)Nc1ccccc1)CCCCC2)c1ccccc1O
result: 30

query: Continue with Nc1ccccc1C(=O)Nc1sc2c(c1C(=O)Nc1ccccn1)CCCCC2
result: 101

query: Continue with O=C(Nc1sc2c(c1C(=O)Nc1nccs1)CCCCC2)c1ccccc1O
result: 0.18

====

- assay_protocol: Therapeutic index, ratio of CC50 for MDCK cells to EC50 for Influenza A virus A/PR/8/34 (H1N1) infected in MDCK cells
- Type: toxicity, cell-based
- conditions_used: dog, read-out: Ratio CC50/EC50
For each entry below, report its selectivity ratio value.

query: What does the record list as selectivity ratio for O=C(Nc1sc2c(c1C(=O)Nc1nccs1)CCCCC2)c1ccccc1O ?
result: > 1390

query: Continue with O=C(Nc1sc2c(c1C(=O)Nc1ccccn1)CCCCC2)c1ccccc1O
result: > 96

query: Continue with O=C(Nc1sc2c(c1C(=O)Nc1ccc(F)cc1)CCCCC2)c1ccccc1O
result: > 200

query: Continue with O=C(Nc1sc2c(c1C(=O)Nc1ccc(Cl)cc1)CCCCC2)c1ccccc1O
result: > 200

====

- assay_protocol: Cytotoxicity against MDCK cells assessed as reduction in cell viability after 48 hrs by MTT assay
- Format: cell-based, Canis lupus familiaris
- conditions_used: dog
For each entry below, report its CC50 at 48 h value.

query: What does the record list as CC50 at 48 h for CN1CCN(C(=O)c2c(NC(=O)c3ccccc3O)sc3c2CCCCC3)CC1 ?
result: > 250 µM

query: Continue with O=C(Nc1sc2c(c1C(=O)NCc1ccccn1)CCCCC2)c1ccccc1O
result: > 250 µM

query: Continue with O=C(Nc1sc2c(c1C(=O)Nc1ccccc1)CCCCC2)c1ccccc1O
result: > 250 µM

query: Continue with O=C(Nc1sc2c(c1C(=O)Nc1ccccc1O)CCCCC2)c1ccc(Cl)cc1
result: 28 µM

query: Continue with O=C(Nc1sc2c(c1C(=O)Nc1nccs1)CCCCC2)c1ccccc1O
result: > 250 µM

query: Continue with COc1ccccc1C(=O)Nc1sc2c(c1C(=O)Nc1ccccn1)CCCCC2
result: 147 µM

query: Continue with O=C(Nc1sc2c(c1C(=O)N1CCN(c3ccccn3)CC1)CCCCC2)c1ccccc1O
result: 145 µM

query: Continue with O=C(Nc1sc2c(c1C(=O)NC1CCCCC1)CCCCC2)c1ccccc1O
result: 172 µM

query: Continue with CSCC[C@H](N)C(=O)N[C@@H](CC(=O)O)C(=O)N[C@H](C(=O)N[C@@H](CC(N)=O)C(=O)N1CCC[C@H]1C(=O)N[C@H](C(=O)N[C@@H](CC(C)C)C(=O)N[C@@H](CC(C)C)C(=O)N[C@@H](Cc1ccccc1)C(=O)N[C@@H](CC(C)C)C(=O)N[C@@H](CCCCN)C(=O)N[C@H](C(=O)N1CCC[C@H]1C(=O)N[C@@H](C)C(=O)N[C@@H](CCC(N)=O)C(=O)O)C(C)C)[C@@H](C)O)C(C)C
result: > 100 µM

query: Continue with Nc1ccccc1C(=O)Nc1sc2c(c1C(=O)Nc1ccccn1)CCCCC2
result: > 250 µM

query: Continue with Nc1ccc(C(=O)Nc2sc3c(c2C(=O)Nc2ccccn2)CCCCC3)cc1
result: > 250 µM

query: Continue with O=C(Nc1sc2c(c1C(=O)Nc1ccccn1)CCCCC2)c1ccccc1O
result: > 250 µM

query: Continue with O=C(Nc1sc2c(c1C(=O)NCc1ccccc1)CCCCC2)c1ccccc1O
result: 172 µM

query: Continue with O=C(Nc1sc2c(c1C(=O)Nc1ccccn1)CCCCC2)c1cccc(O)c1
result: 248 µM

query: Continue with O=C(Nc1sc2c(c1C(=O)Nc1ccccc1O)CCCCC2)c1ccccn1
result: > 250 µM

query: Continue with CC(C)(C)NC(=O)c1c(NC(=O)c2ccccc2O)sc2c1CCCCC2
result: > 250 µM

query: Continue with O=C(Nc1sc2c(c1C(=O)Nc1ccc(Cl)cc1)CCCCC2)c1ccccc1O
result: > 250 µM

query: Continue with COc1ccccc1NC(=O)c1c(NC(=O)c2ccc(Cl)cc2)sc2c1CCCCC2
result: > 250 µM

query: Continue with CC(C)NC(=O)c1c(NC(=O)c2ccccc2O)sc2c1CCCCC2
result: > 250 µM

query: Continue with O=C(Nc1sc2c(c1C(=O)Nc1ccccn1)CCCCC2)c1ccc(O)cc1
result: > 250 µM

query: Continue with O=C(Nc1sc2c(c1C(=O)Nc1ccc(F)cc1)CCCCC2)c1ccccc1O
result: > 250 µM

query: Continue with COc1ccccc1C(=O)Nc1sc2c(c1C(=O)Nc1ccc(Cl)cc1)CCCCC2
result: > 250 µM

query: Continue with NC(=O)c1ncn([C@@H]2O[C@H](CO)[C@@H](O)[C@H]2O)n1
result: > 250 µM

====

- measured_on: PA/PB1 (Influenza A virus (A/Puerto Rico/8/1934(H1N1)), UniProt P03431+P03433)
- assay_protocol: Inhibition of Influenza A virus 6His-tagged PA (239 to 716 residues)/GST-tagged PB1 (1 to 25 residues) protein-protein interaction expressed in Escherichia coli measured after overnight incubation by ELISA
endpoint_label: IC50 (µM)
Dear colleague, please return just the value in µM, with no unit written.

query: Query IC50 on PA/PB1 (Influenza A virus (A/Puerto Rico/8/1934(H1N1)), UniProt P03431+P03433) for O=C(Nc1sc2c(c1C(=O)NCc1ccccc1)CCCCC2)c1ccccc1O
result: 191

query: Continue with O=C(Nc1sc2c(c1C(=O)Nc1ccccn1)CCCCC2)c1ccc(O)cc1
result: 26

query: Continue with O=C(Nc1sc2c(c1C(=O)Nc1ccccn1)CCCCC2)c1cccc(O)c1
result: 23

query: Continue with Nc1ccc(C(=O)Nc2sc3c(c2C(=O)Nc2ccccn2)CCCCC3)cc1
result: 65

query: Continue with O=C(Nc1sc2c(c1C(=O)Nc1nccs1)CCCCC2)c1ccccc1O
result: 69

query: Continue with O=C(Nc1sc2c(c1C(=O)NCc1ccccn1)CCCCC2)c1ccccc1O
result: 33

query: Continue with O=C(Nc1sc2c(c1C(=O)Nc1ccc(F)cc1)CCCCC2)c1ccccc1O
result: 20

query: Continue with COc1ccccc1C(=O)Nc1sc2c(c1C(=O)Nc1ccccn1)CCCCC2
result: 22

query: Continue with COc1ccccc1C(=O)Nc1sc2c(c1C(=O)Nc1ccc(Cl)cc1)CCCCC2
result: 78

query: Continue with O=C(Nc1sc2c(c1C(=O)Nc1ccccc1O)CCCCC2)c1ccccn1
result: 118
